System: HCT-116
property.label: CC50 (µM)
Only the number, expressed in µM, is required.

Some compounds with known CC50 results, for comparison:
* C=C1C(=O)O[C@H]2[C@H]1CC/C(COC(=O)N1CCC(F)(F)CC1)=C\CC[C@@]1(C)O[C@@H]21 [JVM 2-66] | 7.75
* C=C1C(=O)O[C@H]2[C@H]1CC/C(COC(=O)N1CCN(C)CC1)=C\CC[C@@]1(C)O[C@@H]21 [JVM 2-44] | 48
* C=C1C(=O)O[C@H]2[C@H]1CC/C(COC(=O)NC)=C\CC[C@@]1(C)O[C@@H]21 [JVM 2-57] | 33.6

Below: the item to evaluate.
Tested on HCT-116, the item C=C1C(=O)O[C@H]2[C@H]1CC/C(COC(=O)CCC(=O)N1CCC(C)CC1)=C\CC[C@@]1(C)O[C@@H]21 [JVM 2-70] showed CC50 equal to 11.9

----------
Test system: RPMI-8226
Experiment: panel of 60 human tumor cell lines, growth inhibition (Leukemia)
Settings: RPMI-8226; Log10 Concentration −4.0
This section presents compounds with their documented Percent Growth values.
Report field: quantity (unit follows the number).

# count of solved cases: 2
• C=C1C(=O)O[C@H]2[C@H]1CC/C(COC(=O)NCCO)=C\CC[C@@]1(C)O[C@@H]21 = −49%
• C=C1C(=O)O[C@H]2[C@H]1CC/C(COC(=O)Nc1n[nH]c(SC)n1)=C\CC[C@@]1(C)O[C@@H]21 = −46%

Summary for this compound, C=C1C(=O)O[C@H]2[C@H]1CC/C(COC(=O)NC)=C\CC[C@@]1(C)O[C@@H]21 : Percent Growth is −53%

Record summary for C=C1C(=O)O[C@H]2[C@H]1CC/C(COC(=O)NCCN1CCOCC1)=C\CC[C@@]1(C)O[C@@H]21 : reported Percent Growth = −47%

----------
System: COLO 205
property.label: CC50 (µM)
# value in µM; strip the unit string

• C=C1C(=O)O[C@H]2[C@H]1CC/C(COC(=O)NCCN1CCCCC1)=C\CC[C@@]1(C)O[C@@H]21 = 7.75

Note to self: CC50 of C=C1C(=O)O[C@H]2[C@H]1CC/C(COC(=O)N1CCN(C)CC1)=C\CC[C@@]1(C)O[C@@H]21 with COLO 205 was 64.8

Readout CC50 for C=C1C(=O)O[C@H]2[C@H]1CC/C(COC(=O)N1CCC(F)(F)CC1)=C\CC[C@@]1(C)O[C@@H]21 , test system COLO 205, was 8.44

So the reported CC50 for C=C1C(=O)O[C@H]2[C@H]1CC/C(COC(=O)CCC(=O)N1CCC(C)CC1)=C\CC[C@@]1(C)O[C@@H]21 , on COLO 205, turned out to be 31.9

For C=C1C(=O)O[C@H]2[C@H]1CC/C(COC(=O)NCCO)=C\CC[C@@]1(C)O[C@@H]21 on COLO 205, measured CC50 was 50.7

----------
Test system: NCI-H226
Experiment: panel of 60 human tumor cell lines, growth inhibition (Non-Small Cell Lung Cancer)
Conditions: Homo sapiens, NCI-H226, read-out: TGI
Property: IC (TGI); scope: individual compounds
Please state the figure in µM; there is no need to write the unit.

Would you please look over these solved cases?
• C=C1C(=O)O[C@H]2[C@H]1CC/C(COC(=O)CCC(=O)NCc1ccc(Cl)nc1)=C\CC[C@@]1(C)O[C@@H]21 = 32
• C=C1C(=O)O[C@H]2[C@H]1CC/C(COC(=O)NCCc1ccccn1)=C\CC[C@@]1(C)O[C@@H]21 = 33.8
• C=C1C(=O)O[C@H]2[C@H]1CC/C(COC(=O)OC)=C\CC[C@@]1(C)O[C@@H]21 = 27.4

Kindly review the next compound as well.
Item: C=C1C(=O)O[C@H]2[C@H]1CC/C(COC(=O)Nc1n[nH]c(SC)n1)=C\CC[C@@]1(C)O[C@@H]21 | IC (TGI): 31.9

----------
System: SNB-19
Assay: panel of 60 human tumor cell lines, growth inhibition (CNS Cancer)
Conditions: Homo sapiens, SNB-19, read-out: TGI
Measured IC (TGI), listed per entry for reference.
Enter your answer as a number in µM; do not include the unit.

• C=C1C(=O)O[C@H]2[C@H]1CC/C(COC(=O)NCCCCCCO)=C\CC[C@@]1(C)O[C@@H]21 [JVM 2-31] = 51.3
• C=C1C(=O)O[C@H]2[C@H]1CC/C(COC(=O)CCC(=O)NCc1ccc(Cl)nc1)=C\CC[C@@]1(C)O[C@@H]21 [JVM 96] = 42.3

In plain terms, C=C1C(=O)O[C@H]2[C@H]1CC/C(COC(=O)OCCCN1CCCCC1)=C\CC[C@@]1(C)O[C@@H]21 [JVM 2-26] has a documented IC (TGI) of 27.5

----------
The listing below reports CC50 for compounds tested on NCI-H23.

* C=C1C(=O)O[C@H]2[C@H]1CC/C(COC(=O)N1CCC(F)(F)CC1)=C\CC[C@@]1(C)O[C@@H]21 | 48.2 µM

Param item: C=C1C(=O)O[C@H]2[C@H]1CC/C(COC(=O)CCC(=O)N1CCC(C)CC1)=C\CC[C@@]1(C)O[C@@H]21 ; param system: NCI-H23; output CC50: 64.3 µM

CC50 of C=C1C(=O)O[C@H]2[C@H]1CC/C(COC(=O)NCCO)=C\CC[C@@]1(C)O[C@@H]21 , assay on NCI-H23, is 94.3 µM

Recorded CC50 for C=C1C(=O)O[C@H]2[C@H]1CC/C(COC(=O)NCCN1CCCCC1)=C\CC[C@@]1(C)O[C@@H]21 on NCI-H23 was 65.5 µM

Observed CC50, NCI-H23, C=C1C(=O)O[C@H]2[C@H]1CC/C(COC(=O)N1CCN(C)CC1)=C\CC[C@@]1(C)O[C@@H]21 : 82.4 µM

Tested on NCI-H23: C=C1C(=O)O[C@H]2[C@H]1CC/C(COC(=O)NC)=C\CC[C@@]1(C)O[C@@H]21 . Observed CC50: 66.1 µM

----------
Let's look at some molecules and their measured Percent Growth.
Tested on: DU-145
Assay: panel of 60 human tumor cell lines, growth inhibition (Prostate Cancer)
Conditions: DU-145; Log10 Concentration −4.0
Reply with just the number (in %).

Previously resolved entries follow.
* C=C1C(=O)O[C@H]2[C@H]1CC/C(COC(=O)NCCc1ccccn1)=C\CC[C@@]1(C)O[C@@H]21 | −87
* C=C1C(=O)O[C@H]2[C@H]1CC/C(COC(=O)NCCO)=C\CC[C@@]1(C)O[C@@H]21 | −92
* C=C1C(=O)O[C@H]2[C@H]1CC/C(COC(=O)CCC(=O)N1CCC(C)CC1)=C\CC[C@@]1(C)O[C@@H]21 | −89

Next item in the queue.
The molecule listed as C=C1C(=O)O[C@H]2[C@H]1CC/C(COC(=O)NC)=C\CC[C@@]1(C)O[C@@H]21 shows Percent Growth equal to −97

----------
Tested on: SK-MEL-2
Assay: panel of 60 human tumor cell lines, growth inhibition (Melanoma)
Conditions: Homo sapiens, SK-MEL-2
GI50 values, listed per item

Consider the following illustrative entries.
* C=C1C(=O)O[C@H]2[C@H]1CC/C(COC(=O)OCCN(C)C)=C\CC[C@@]1(C)O[C@@H]21 [JVM 2-35] | 15.2 µM
* C=C1C(=O)O[C@H]2[C@H]1CC/C(COC(=O)NCCN1CCCC1)=C\CC[C@@]1(C)O[C@@H]21 [JVM 59] | 14 µM
* C=C1C(=O)O[C@H]2[C@H]1CC/C(COC(=O)NCCc1ccccn1)=C\CC[C@@]1(C)O[C@@H]21 [JVM 61] | 15.1 µM
* C=C1C(=O)O[C@H]2[C@H]1CC/C(COC(=O)Nc1n[nH]c(SC)n1)=C\CC[C@@]1(C)O[C@@H]21 [JVM 64] | 3.56 µM

# input for lookup
C=C1C(=O)O[C@H]2[C@H]1CC/C(COC(=S)n1ccnc1)=C\CC[C@@]1(C)O[C@@H]21 [JVM 66] has a reported GI50 of 16.4 µM

----------
Test system: RXF 393
Assay: panel of 60 human tumor cell lines, growth inhibition (Renal Cancer)
Conditions: Homo sapiens, RXF 393, read-out: TGI
Kindly return Fulfilled if reported IC (TGI) is no lower than 9 µM; return Not fulfilled if it is lower.

* C=C1C(=O)O[C@H]2[C@H]1CC/C(COC(=O)OCCCN1CCCCC1)=C\CC[C@@]1(C)O[C@@H]21 | Not fulfilled
* C=C1C(=O)O[C@H]2[C@H]1CC/C(COC(=S)n1ccnc1)=C\CC[C@@]1(C)O[C@@H]21 | Fulfilled
* C=C1C(=O)O[C@H]2[C@H]1CC/C(COC(=O)OC)=C\CC[C@@]1(C)O[C@@H]21 | Not fulfilled
* C=C1C(=O)O[C@H]2[C@H]1CC/C(COC(=O)NCCCCCCO)=C\CC[C@@]1(C)O[C@@H]21 | Fulfilled

# input Please check the record C=C1C(=O)O[C@H]2[C@H]1CC/C(COC(=O)CCC(=O)NCc1ccc(Cl)nc1)=C\CC[C@@]1(C)O[C@@H]21 and state if its IC (TGI) is at or above 9 µM.
# output Fulfilled
